Values were extracted from paper PMC8352872.

# assay.system: SapL1 (Scedosporium apiospermum, UniProt A0A084FYP2)
# Construct: gene SAPIO_CDS9261; carbohydrate recognition domain, residues 75-369
# Sequence (A0A084FYP2 entry or part of it): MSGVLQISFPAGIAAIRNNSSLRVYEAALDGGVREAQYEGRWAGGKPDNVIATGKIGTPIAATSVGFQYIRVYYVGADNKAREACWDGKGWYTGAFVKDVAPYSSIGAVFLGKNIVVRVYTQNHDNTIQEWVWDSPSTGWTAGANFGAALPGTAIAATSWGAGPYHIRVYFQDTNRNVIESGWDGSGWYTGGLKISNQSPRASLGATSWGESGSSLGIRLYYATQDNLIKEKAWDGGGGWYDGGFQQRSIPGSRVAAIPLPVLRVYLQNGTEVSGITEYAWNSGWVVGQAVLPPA
# test.description: ITC (stoichiometry fixed to […])
# Assay type: binding
quantity.measured: pKd
Numbers only, as −log10 of the molar value.

query: Provide one value: measured pKd of C[C@@H]1OC(O)[C@@H](O)[C@H](O)[C@@H]1O (stereo partly shown)
result: 3.65

----------
# assay.system: SapL1 (Scedosporium apiospermum, UniProt A0A084FYP2)
# Construct: gene SAPIO_CDS9261; carbohydrate recognition domain, residues 75-369
# test.description: (X-ray) and ITC (stoichiometry fixed to […])
# Type: binding
quantity.measured: pKd
One number for each entry, as −log10 of the molar value.

query: Provide one value: measured pKd of CO[C@@H]1O[C@@H](C)[C@@H](O)[C@@H](O)[C@@H]1O [α-methyl-L-fucoside, methyl-α-L-fucopyranoside]
result: 3.72
